molecular target: KDM5A (Homo sapiens, UniProt P29375); construct: Full length KDM5A enzyme was expressed and purified inhouse; made in house; assay: KDM5 enzyme assay, KDM5A HTRF (Example 463); format: biochemical; settings: compounds of Examples 1-432; read-out: Example 463 Assay KDM5A HTRF IC50
Sequence (P29375 whole entry): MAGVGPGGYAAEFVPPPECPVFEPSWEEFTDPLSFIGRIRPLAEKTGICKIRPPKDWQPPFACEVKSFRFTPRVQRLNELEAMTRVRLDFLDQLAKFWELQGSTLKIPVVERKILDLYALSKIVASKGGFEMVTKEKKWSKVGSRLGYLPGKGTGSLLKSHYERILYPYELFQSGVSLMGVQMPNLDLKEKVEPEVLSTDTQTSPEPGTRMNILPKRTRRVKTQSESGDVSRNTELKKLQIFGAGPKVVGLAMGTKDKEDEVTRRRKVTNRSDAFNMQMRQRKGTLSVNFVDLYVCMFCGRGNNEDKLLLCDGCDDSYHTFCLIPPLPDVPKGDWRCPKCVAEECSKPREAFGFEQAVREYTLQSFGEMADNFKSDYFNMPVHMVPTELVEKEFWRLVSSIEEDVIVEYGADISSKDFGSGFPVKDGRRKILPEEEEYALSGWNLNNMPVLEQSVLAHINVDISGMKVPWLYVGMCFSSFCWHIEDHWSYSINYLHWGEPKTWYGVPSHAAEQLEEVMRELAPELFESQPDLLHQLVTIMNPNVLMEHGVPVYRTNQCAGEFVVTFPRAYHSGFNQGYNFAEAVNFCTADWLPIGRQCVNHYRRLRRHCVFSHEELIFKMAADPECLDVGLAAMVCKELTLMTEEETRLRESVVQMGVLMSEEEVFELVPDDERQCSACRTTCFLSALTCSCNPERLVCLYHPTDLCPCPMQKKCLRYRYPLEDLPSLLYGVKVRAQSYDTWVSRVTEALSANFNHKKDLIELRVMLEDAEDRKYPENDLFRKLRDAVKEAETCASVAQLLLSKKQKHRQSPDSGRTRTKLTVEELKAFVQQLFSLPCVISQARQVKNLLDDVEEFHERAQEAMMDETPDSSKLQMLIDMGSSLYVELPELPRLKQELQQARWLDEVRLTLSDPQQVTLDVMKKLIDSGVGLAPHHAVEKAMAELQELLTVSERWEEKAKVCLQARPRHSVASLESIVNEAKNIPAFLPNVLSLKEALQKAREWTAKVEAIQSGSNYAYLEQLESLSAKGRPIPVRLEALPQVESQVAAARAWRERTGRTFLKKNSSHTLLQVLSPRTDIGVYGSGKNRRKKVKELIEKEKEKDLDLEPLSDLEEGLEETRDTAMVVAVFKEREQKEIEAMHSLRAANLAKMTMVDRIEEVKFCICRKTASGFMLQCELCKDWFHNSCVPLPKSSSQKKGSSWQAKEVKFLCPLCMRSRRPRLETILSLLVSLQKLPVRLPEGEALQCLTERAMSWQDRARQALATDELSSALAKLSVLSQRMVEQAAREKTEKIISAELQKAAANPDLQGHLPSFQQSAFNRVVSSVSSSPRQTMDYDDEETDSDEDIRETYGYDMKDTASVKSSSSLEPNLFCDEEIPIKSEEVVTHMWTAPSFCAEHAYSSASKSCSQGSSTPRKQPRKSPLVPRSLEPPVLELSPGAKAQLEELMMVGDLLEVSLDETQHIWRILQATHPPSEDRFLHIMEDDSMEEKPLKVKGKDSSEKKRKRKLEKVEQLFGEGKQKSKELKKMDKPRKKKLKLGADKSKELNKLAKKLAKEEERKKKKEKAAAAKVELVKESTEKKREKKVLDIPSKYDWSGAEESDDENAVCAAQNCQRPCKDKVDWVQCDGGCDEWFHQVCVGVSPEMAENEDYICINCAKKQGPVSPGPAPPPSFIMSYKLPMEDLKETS
Rule: IC50 below 20 nM gives fulfilled, anything at or above gives not fulfilled.

>>> print(df.to_string())
                                 mol_smiles   category
0  Cc1ncc(-c2[nH]c3c(C#N)cnn3c(=O)c2C(C)C)s1  fulfilled

## Task Is IC50 of CC(C)c1c(-c2ccc(C#N)cc2)[nH]c2c(C#N)cnn2c1=O strictly below 20 nM?
## Result fulfilled

## Task Param item: CCc1c(-c2cccc(-c3cnn(C(C)C)c3)c2)[nH]c2c(C#N)cnn2c1=O
## Result not fulfilled

## Task Param item: CC(C)c1c(-c2cnn(-c3cccnc3)c2)[nH]c2c(C#N)cnn2c1=O
## Result not fulfilled

## Task Param item: CC(C)c1c(-c2ccn(C(=O)C3CC3)n2)[nH]c2c(C#N)cnn2c1=O
## Result fulfilled

## Task Param item: CC(C)c1c(-c2cc(F)cc(Cl)c2)[nH]c2c(C#N)cnn2c1=O
## Result not fulfilled

## Task Param item: CC(C)c1c(-c2cc[nH]c2)[nH]c2c(C#N)cnn2c1=O
## Result fulfilled

## Task Param item: Cn1c(-c2ccccc2)c(C2CC2)c(=O)n2ncc(C#N)c12
## Result not fulfilled

## Task Param item: CC(=O)NCCn1cc(-c2[nH]c3c(C#N)cnn3c(=O)c2C(C)C)cn1
## Result not fulfilled

---

biological target: KDM5A (Homo sapiens); construct: Full length KDM5A enzyme was expressed and purified inhouse; made in house; assay: KDM5 enzyme assay, KDM5A HTRF (Example 463); type: biochemical; settings: compounds of Examples 1-432; read-out: Example 463 Assay KDM5A HTRF IC50
Rule: IC50 below 0.01 µM gives rule met, anything at or above gives rule not met.

                                   compound                system      category
0   CC(C)c1c(Oc2ccccc2)[nH]c2c(C#N)cnn2c1=O  KDM5A (Homo sapiens)  rule not met
1  CC(C)c1c(-c2ccc(F)c(C(=O)N3CCCC3)c2)[nH]c2c(C#N)cnn2c1=O  KDM5A (Homo sapiens)  rule not met

## Task Is IC50 of COc1cccc(-c2c(C(C)C)c(=O)n3ncc(C#N)c3n2C)c1 strictly below 0.01 µM?
## Result rule not met

## Task Param item: CC(C)c1c(C#Cc2ccccc2)[nH]c2c(C#N)cnn2c1=O
## Result rule not met

## Task Param item: C#CC(C)c1c(-c2ccccc2)[nH]c2c(C#N)cnn2c1=O (stereo not drawn)
## Result rule not met

## Task Param item: CC(C)c1c(-c2ccc(F)c(F)c2)[nH]c2c(C#N)cnn2c1=O
## Result rule not met

## Task Param item: CC(C)c1c(-c2cncc(F)c2)[nH]c2c(C#N)cnn2c1=O
## Result rule met

## Task Param item: CCc1c(C(=O)NC)n(C)c2c(C#N)cnn2c1=O
## Result rule not met

## Task Param item: CC(C)c1c(-c2cc3ccccc3[nH]2)[nH]c2c(C#N)cnn2c1=O
## Result rule met

---

biological target: GASC1 (Homo sapiens); construct: 6×His tagged recombinant GASC1 (N 350aa) was purified from E. Coli BL21(DE3); 6xHis; assay: GASC1 demethylation assay on H3K9Me3 peptide (RapidFire HT-MS); settings: read-out: GASC1 Inhibition
Sequence (Q9H3R0 1-350 limits assumed): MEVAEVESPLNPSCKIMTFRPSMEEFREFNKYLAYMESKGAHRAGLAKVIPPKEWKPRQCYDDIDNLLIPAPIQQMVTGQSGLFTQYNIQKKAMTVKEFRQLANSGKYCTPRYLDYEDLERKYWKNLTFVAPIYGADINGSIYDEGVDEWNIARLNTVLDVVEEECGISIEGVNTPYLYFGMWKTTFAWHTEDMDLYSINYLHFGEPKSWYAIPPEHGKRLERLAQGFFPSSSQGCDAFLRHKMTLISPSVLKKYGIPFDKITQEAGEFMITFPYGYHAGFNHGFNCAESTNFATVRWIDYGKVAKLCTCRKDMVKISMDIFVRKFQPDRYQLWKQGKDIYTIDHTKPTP
pIC50: −log10 of the molar value.
Quick list: pIC50 per entry.

A selection of reference data follows.
>>> df
                                   compound        result
0  CCOCc1[nH]c2c(C#N)cnn2c(=O)c1CC [Compound I-45]        ≥ 6.00
1  CCc1c(C(=O)NC)[nH]c2c(C#N)cnn2c1=O [Compound I-49]  5.00 to 6.00
2  CCCc1c(C)[nH]c2c(C#N)c(C)nn2c1=O [Compound I-16]  5.00 to 6.00
3  CCc1c(-c2ccoc2)[nH]c2c(C#N)cnn2c1=O [Compound I-42]        ≥ 6.00
4  CCc1c(CO)[nH]c2c(C#N)c(C)nn2c1=O [Compound I-22]  5.00 to 6.00

## Task Given the compound CCCc1c(C)[nH]c2c(C#N)cnn2c1=O [Compound I-17] , what is its reported pIC50?
## Result ≥ 6.00

## Task Param item: C=CCc1c(C)[nH]c2c(C#N)cnn2c1=O [Compound I-34]
## Result ≥ 6.00

## Task Param item: Cc1[nH]c2c(C#N)cnn2c(=O)c1CCO [Compound I-40]
## Result 5.00 to 6.00

## Task Param item: CCc1c(C)n(CCN(C)C)c2c(C#N)cnn2c1=O [Compound I-36]
## Result ≤ 4.30

## Task Param item: C=CCc1c(CO)[nH]c2c(C#N)cnn2c1=O [Compound I-50]
## Result 5.00 to 6.00

## Task Param item: CCc1c(-c2ccccc2)[nH]c2c(C#N)cnn2c1=O [Compound I-47]
## Result ≥ 6.00

## Task Param item: CCc1c(COC)[nH]c2c(C#N)cnn2c1=O [Compound I-23]
## Result 5.00 to 6.00

## Task Param item: CCc1nn2c(=O)c3c([nH]c2c1C#N)CCCC3 [Compound I-13]
## Result ≤ 4.30

---

biological target: KDM5A (Homo sapiens, UniProt P29375); construct: Full length KDM5A enzyme was expressed and purified inhouse; made in house; test: KDM5 enzyme assay, KDM5A HTRF (Example 463); type: biochemical; conditions: compounds of Examples 1-432; read-out: Example 463 Assay KDM5A HTRF IC50
Rule: IC50 below 20 nM gives y, anything at or above gives n.

Here are 3 compounds together with their reported answers.
In [3]: df
Out[3]:
                                 mol_smiles                                system  category
0  CC(C)c1c(-c2ccc(=O)[nH]c2)[nH]c2c(C#N)cnn2c1=O  KDM5A (Homo sapiens, UniProt P29375)         y
1  Cc1nc(Cn2cc(-c3[nH]c4c(C#N)cnn4c(=O)c3C(C)C)cn2)cs1  KDM5A (Homo sapiens, UniProt P29375)         y
2  C/C=C/Cc1c(-c2ccccc2)[nH]c2c(C#N)cnn2c1=O  KDM5A (Homo sapiens, UniProt P29375)         n

Now look at this entry.
## Task Is IC50 of COc1ccc(-c2[nH]c3c(C#N)cnn3c(=O)c2C(C)C)cc1OC strictly below 20 nM?
## Result n

---

target: KDM5A (Homo sapiens); construct: Full length KDM5A enzyme was expressed and purified inhouse; made in house; test: KDM5 enzyme assay, KDM5A HTRF (Example 463); type: biochemical; details: compounds of Examples 1-432; read-out: Example 463 Assay KDM5A HTRF IC50
Quick list: log10(IC50) per entry.
Short version: log10 scale, IC50, nM.

                                 mol_smiles   value_type  quantitative_result
0  CC(C)c1c(-c2cnn(CCNC(=O)OC(C)(C)C)c2)[nH]c2c(C#N)cnn2c1=O  log10(IC50)                 1.32
1  CC(C)c1c(-c2ccc(-c3ccccc3)o2)[nH]c2c(C#N)cnn2c1=O  log10(IC50)                 1.53
2  CC(C)c1c(-c2cccc(Oc3ccccc3)c2)[nH]c2c(C#N)cnn2c1=O  log10(IC50)                 0.95
3  N#Cc1cnn2c(=O)c(CCCCN)c(-c3ccccc3)[nH]c12  log10(IC50)                 3.88
4  CC(C)c1c(-c2cnn(C3CCCCC3)c2)[nH]c2c(C#N)cnn2c1=O  log10(IC50)                 1.32

## Task Given the compound CNS(=O)(=O)c1ccc(-c2cccc(-c3[nH]c4c(C#N)cnn4c(=O)c3C(C)C)c2)cc1 , what is its reported log10(IC50)?
## Result 1.51

## Task Param item: COc1cc(F)cc(-c2[nH]c3c(C#N)cnn3c(=O)c2C(C)C)c1
## Result 1.46

## Task Param item: CC(C)c1c(-c2ccc(C(F)(F)F)cc2)[nH]c2c(C#N)cnn2c1=O
## Result 1.32

## Task Param item: CC(C)n1cc(-c2[nH]c3c(C#N)cnn3c(=O)c2C2(C)CCC2)cn1
## Result 1.75

## Task Param item: CC(C)c1c(-c2cncc(Cl)c2)[nH]c2c(C#N)cnn2c1=O
## Result 0.86
